The reported numbers originate from the supplement of paper PMC10307832.

Test system: HCC-15
procedureText: relative viability (nuclei count vs DMSO), 5 days (fraction); higher = more cells survive
measurementSetup: first compound 0.01 µM
Kindly supply the reported relative viability values for the records listed here.
Please respond with just the number, no unit label.

Lookup: relative viability for CCN(CC)CCCCNc1ncc2cc(-c3cc(OC)cc(OC)c3)c(NC(=O)NC(C)(C)C)nc2n1 + CC(=O)Nc1cccc(-n2c(=O)n(C3CC3)c(=O)c3c(Nc4ccc(I)cc4F)n(C)c(=O)c(C)c32)c1 [Trametinib] (partner 0.02 µM) ?
Found: 0.427

Lookup: relative viability for O=c1cc(N2CCOCC2)oc2c(-c3cccc4c3sc3ccccc34)cccc12 + O=C(c1cc(Cc2n[nH]c(=O)c3ccccc23)ccc1F)N1CCN(C(=O)C2CC2)CC1 [Olaparib] (partner 8 µM) ?
Found: 0.692

Lookup: relative viability for O=c1cc(N2CCOCC2)oc2c(-c3cccc4c3sc3ccccc34)cccc12 + CCNC(=O)c1noc(-c2cc(C(C)C)c(O)cc2O)c1-c1ccc(CN2CCOCC2)cc1 [Luminespib] (partner 0.01 µM) ?
Found: 0.301
